Origin of values: paper PMC6703927

target: Y156F-DAT (Homo sapiens, UniProt Q01959, Y156F); assay: DA uptake inhibition assay, transfected COS-7 cells; conditions: read-out: IC50 DA uptake inhibition; Y156F-DAT transfected COS-7 cells
Sequence (Q01959 whole entry Y156F): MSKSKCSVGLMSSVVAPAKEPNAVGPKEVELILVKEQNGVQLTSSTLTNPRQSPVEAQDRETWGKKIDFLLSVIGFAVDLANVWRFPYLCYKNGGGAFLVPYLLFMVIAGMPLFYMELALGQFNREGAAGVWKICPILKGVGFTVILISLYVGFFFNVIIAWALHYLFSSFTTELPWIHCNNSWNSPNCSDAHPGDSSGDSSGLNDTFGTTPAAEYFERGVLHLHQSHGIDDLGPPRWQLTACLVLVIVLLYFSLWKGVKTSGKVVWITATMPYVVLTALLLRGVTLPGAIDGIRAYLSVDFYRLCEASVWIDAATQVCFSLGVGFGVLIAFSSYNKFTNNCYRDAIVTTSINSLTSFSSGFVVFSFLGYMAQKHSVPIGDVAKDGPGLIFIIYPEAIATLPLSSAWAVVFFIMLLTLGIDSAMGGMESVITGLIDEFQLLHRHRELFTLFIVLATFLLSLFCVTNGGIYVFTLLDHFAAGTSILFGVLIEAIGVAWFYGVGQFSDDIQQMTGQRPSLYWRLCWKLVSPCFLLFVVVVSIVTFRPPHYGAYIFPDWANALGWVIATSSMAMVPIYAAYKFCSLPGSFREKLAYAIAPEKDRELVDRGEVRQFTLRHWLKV
Readout: pIC50
Kindly note that pIC50 refers to -log10 of the concentration in mol/L and answer with the value alone.

Problem: Requested field: pIC50. Item: CCc1ccc2[nH]c3nc(SCCNS(=O)(=O)c4ccc(NC(C)=O)cc4)nnc3c2c1
Result: 5.48

* * *

molecular target: Y335A-DAT (Homo sapiens, UniProt Q01959, Y335A); assay: DA uptake inhibition assay, transfected COS-7 cells; conditions: read-out: IC50 DA uptake inhibition; Y335A-DAT transfected COS-7 cells
Sequence (Q01959 whole entry Y335A): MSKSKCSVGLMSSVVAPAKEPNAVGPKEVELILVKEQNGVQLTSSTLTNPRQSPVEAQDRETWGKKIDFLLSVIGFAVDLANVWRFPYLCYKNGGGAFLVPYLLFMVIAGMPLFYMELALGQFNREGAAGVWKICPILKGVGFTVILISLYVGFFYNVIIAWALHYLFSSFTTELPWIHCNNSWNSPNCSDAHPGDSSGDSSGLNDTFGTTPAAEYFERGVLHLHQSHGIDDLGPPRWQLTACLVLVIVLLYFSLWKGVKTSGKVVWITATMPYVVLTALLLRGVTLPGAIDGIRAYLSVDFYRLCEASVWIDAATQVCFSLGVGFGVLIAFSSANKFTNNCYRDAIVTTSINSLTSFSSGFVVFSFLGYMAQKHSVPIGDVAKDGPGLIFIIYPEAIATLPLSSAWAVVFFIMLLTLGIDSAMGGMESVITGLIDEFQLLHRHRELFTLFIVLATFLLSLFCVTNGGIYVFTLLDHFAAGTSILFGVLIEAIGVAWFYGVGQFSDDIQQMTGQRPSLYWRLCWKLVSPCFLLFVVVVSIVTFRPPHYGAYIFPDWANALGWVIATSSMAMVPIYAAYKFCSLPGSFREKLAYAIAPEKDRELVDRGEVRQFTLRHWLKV
Readout: IC50 (µM)
Give the quantity in µM, number only.

Problem: Name the reported IC50 value associated with the compound CCc1ccc2[nH]c3nc(SCCNS(=O)(=O)c4ccc(NC(C)=O)cc4)nnc3c2c1 [KM822]
Result: 12.8
